Molecular target: recombinant human MMP-13 (Homo sapiens)
Assay: In vitro metalloprotease inhibition, fluorogenic MCA peptide substrate
Details: room temperature, pH 7.5, 4 μM substrate, APMA-activated enzyme
Structures can show the parent of a compound that is named as a salt.
reported-property: IC50 (nM)

| molecule | measurement-target | reported-property | measurement-units | result |
| --- | --- | --- | --- | --- |
| CC(CCS(=O)(=O)c1ccc(Oc2ccccc2)cc1)C(=O)NO (stereo not shown) [Example 5] | recombinant human MMP-13 (Homo sapiens) | IC50 | nM | 1.8 |
| Cc1ccc(Oc2ccc(S(=O)(=O)CCC(O)C(=O)NO)cc2)cc1C (racemic) [Example 7] | recombinant human MMP-13 (Homo sapiens) | IC50 | nM | 400 |
| O=C(NO)C(O)CCS(=O)(=O)c1ccc(Oc2ccccc2)cc1 (stereo not shown) [Example 4] | recombinant human MMP-13 (Homo sapiens) | IC50 | nM | 54.4 |
| CC(C)(CS(=O)(=O)c1ccc(Oc2ccccc2)cc1)[C@H](NC(=O)CN1CCOCC1)C(=O)NO [Example 13a, Monohydrochloride] | recombinant human MMP-13 (Homo sapiens) | IC50 | nM | 1.8 |

[P] CC(C)(C)OC(=O)N1CCC(CCS(=O)(=O)c2ccc(Oc3ccccc3)cc2)(C(=O)NO)CC1 [Example 16]
[Q] CC(C)(CS(=O)(=O)c1ccc(Oc2ccccc2)cc1)[C@H](OCc1cccnc1)C(=O)NO [Example 8a]
Lab log: flag the item ( P or Q ) with the smaller IC50 figure. Mark your answer with the label of the selected entry.
Q

[I] CC(C)(CS(=O)(=O)c1ccc(Oc2ccccc2)cc1)[C@H](N)C(=O)NO [Example 12]
[II] COc1ccc(S(=O)(=O)CCCC(=O)NO)cc1 [Example 6]
[III] CC(C)(CS(=O)(=O)c1ccc(Oc2ccccc2)cc1)[C@H](OCc1ccncc1)C(=O)NO [Example 9a]
Sort (3 molecules) by IC50: min first. Please respond with the labels ordered as the question requires.
I, III, II
(I: 1.6 nM, III: 3 nM, II: 2000 nM)
